B1: ISL2 (parent)
chain: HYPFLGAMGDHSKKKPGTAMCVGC

- Variants of: B1
- method: protein stability index of a GFP-peptide fusion (GPS, HEK-293T) (PSI 1-6); higher = more stable;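 note: lentivirally expressed fusions sorted by FACS into six bins by GFP to DsRed ratio, PSI derived from sequencing read proportions per bin multiplied by bin number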
- test settings: c terminus: a fixed tail appended
Entries and their protein stability index

stdin: I'd like to know its protein stability index. The variant in question is P16R
stdout: 1.99

stdin: I'd like to know its protein stability index. The variant in question is T18D
stdout: 3.4

stdin: I'd like to know its protein stability index. The variant in question is P3V
stdout: 2.06

stdin: I'd like to know its protein stability index. The variant in question is G23W
stdout: 1.85

stdin: I'd like to know its protein stability index. The variant in question is V22T
stdout: 3.42

stdin: I'd like to know its protein stability index. The variant in question is C21T
stdout: 3.71

stdin: I'd like to know its protein stability index. The variant in question is M8R
stdout: 3.19

stdin: I'd like to know its protein stability index. The variant in question is L5D
stdout: 3.75

stdin: I'd like to know its protein stability index. The variant in question is M20H
stdout: 2.85

stdin: I'd like to know its protein stability index. The variant in question is P16D
stdout: 3.02

stdin: I'd like to know its protein stability index. The variant in question is H11S
stdout: 2.35

stdin: I'd like to know its protein stability index. The variant in question is K13Q
stdout: 2.69
